This collection of values is drawn from patent US10010534B2.

# test_summary: Solubility of GMC1 in selected solvents by the shaker method
# Assay type: physicochemical
# assay_context: Labrafac, oil or lipid, thermodynamic from solid, Labrafac, room temperature, read-out: Mean Solubility ± SD
measured_parameter: solubility at 72 h (µg/mL)
Answer in µg/mL, number only, no unit symbol.

Ask: Look up solubility at 72 h: COc1ccc(/C=N/NC(=O)CSc2nc3ccccc3[nH]2)cc1
Result: 1200

###

# test_summary: Pharmacokinetic study of the GMC1 co-solvent formulation, IV bolus
# Format: in vivo, male Sprague Dawley rats
# assay_context: male, Sprague Dawley, plasma; rat, single 2 mg/kg IV bolus, three compartment model
measured_parameter: Cmax (ng/mL)
Answer in ng/mL, number only, no unit symbol.

Ask: Look up Cmax: COc1ccc(/C=N/NC(=O)CSc2nc3ccccc3[nH]2)cc1
Result: 7640

###

# test_summary: Processed sample (on-instrument or auto-sampler) stability
# Format: physicochemical
# assay_context: rat, processed urine sample (methanol extract), urine extracted with methanol containing IS, 2 h; read-out: Mean Recovery ± SD, auto-sampler stability, With IS
measured_parameter: recovery at 2 h
Returns: string containing the number followed by the unit.

Ask: Look up recovery at 2 h: COc1ccc(/C=N/NC(=O)CSc2nc3ccccc3[nH]2)cc1 [GMC1]
Result: 96.4%

###

# test_summary: Pharmacokinetic study of the GMC1 co-solvent formulation, IV bolus
# Type: in vivo, male Sprague Dawley rats
# assay_context: male, Sprague Dawley, rat, plasma, iv, 2 mg/kg, single 2 mg/kg IV bolus, three compartment model, read-out: T1/2γ (elimination half-life of γ-phase)
# Description: Pharmacokinetic Studies of the GMC1 Co-Solvent Formulation. Pharmacokinetic study, which elucidates the fate of GMC1 in living systems, was performed. The pharmacokinetic study also verifies the applicability of the LC/MS/MS assay method and the formulation. […] The plasma and urine samples were analyzed (within 7 days) using the LC/MS/MS method described herein to obtain the concentration of GMC1. […]
measured_parameter: half-life (h)
Answer in h, number only, no unit symbol.

Ask: Look up half-life: COc1ccc(/C=N/NC(=O)CSc2nc3ccccc3[nH]2)cc1
Result: 19.7

###

# test_summary: Freeze-thaw cycle stability of GMC1 plasma and urine samples
# Format: physicochemical, rat
# assay_context: rat urine, 400 ng/mL, three cycles; read-out: Mean Recovery ± SD, freeze-thaw cycle stability
# Protocol: The freeze-thaw cycle stability of GMC1 plasma and urine samples was evaluated by comparing QC plasma and urine samples exposed to three cycles of freeze (at −80° C.) and thaw (room temperature) to freshly prepared QC samples at the same concentration. Average recoveries from freeze-thawed plasma samples were 106±5.9%, 98.5±3.7% and 94.1±2.9% for GMC1 concentrations of 10, 200 and 400 ng/mL respectively. […]
measured_parameter: recovery at 400 ng/mL
Returns: string containing the number followed by the unit.

Ask: Look up recovery at 400 ng/mL: COc1ccc(/C=N/NC(=O)CSc2nc3ccccc3[nH]2)cc1 [GMC1]
Result: 86.6%

###

# test_summary: Processed sample (on-instrument or auto-sampler) stability
# Type: physicochemical
# assay_context: rat, processed plasma sample (methanol extract), plasma extracted with methanol containing IS, 4 h; read-out: Mean Recovery ± SD, auto-sampler stability, With IS
measured_parameter: recovery at 4 h (%)
Answer in %, number only, no unit symbol.

Ask: Look up recovery at 4 h: COc1ccc(/C=N/NC(=O)CSc2nc3ccccc3[nH]2)cc1
Result: 97.5
